Test system: COLO 205 colon
Assay: NCI tumour cell line growth inhibition, 48 h
Would you kindly list log10 of TGI for each of these compounds?
// do not treat as linear: log10 of TGI, unit µM

compound	log10 of TGI
COC(=O)C1C(O)C(C)C(O)C(C)(O)C=C(C)C2=C3C(=C(C)C(=O)c4c(O)c(c(C)c(OC(C)=O)c43)NC(=O)C(C)=C/C=C\C(C)(O)C(O)C(C)C1O)OCO2 (configuration not stated)	1.84

Hi there! I need log10 of TGI for each item below, if you can.
1. O=C1/C(=C/c2ccc(Cl)cc2Cl)CN(S(=O)(=O)c2ccccc2)C/C1=C\c1ccc(Cl)cc1Cl
2. COCOCCCCCO[Si](C)(C)C(C)(C)C
3. CC(=O)O[C@@H]1C(C2CCCCC2)C=[N+]([O-])O[C@@H]1OC1CCCC1(c1ccccc1)c1ccccc1 (some centres not stated)
4. COc1ccc2c(c1)/C(=C\c1c(-c3ccccc3)nc3n1CCS3)C(=O)N2
5. C=CCC(NCc1ccccc1)[C@H](OCc1ccccc1)[C@@H]1COC(C)(C)O1 (some centres not stated)

Resp:
1. 0.08
2. 1.59
3. 1.25
4. 1.05
5. 1.62

Below are some compounds; for each one, tell me its log10 of TGI.
1. CC(C)NC(=O)OCc1c(COC(=O)NC(C)C)n(C)c2c1ccc1ccsc12
2. COc1ccc2nc3n[nH]c(N)c3nc2c1
3. O=C1CNN=C(CSc2nc3ccc(I)cc3c(=O)n2Cc2ccccc2)N1
4. O=C(NC(N1CCN(c2cc3c(cc2F)c(=O)c(C(=O)O)cn3C2CC2)CC1)(C(F)(F)F)C(F)(F)F)c1ccccc1
5. COC(=O)C1=C(C(=O)OC)C2(C)OC1C(=O)C21CC1 (configuration not stated)
6. C[C@]12OC(=O)[C@]3(O)CC[C@H]4[C@@H](C[C@@H](O)[C@@]5(Cl)CC=CC(=O)[C@]45C)[C@]45OCC6C(=O)O[C@@H]1C[C@@]6(C)[C@H](C4=O)[C@@]32O5 (some centres not stated)

Resp:
1.41
1.28
1.45
1.54
1.75
1.23

# map each compound to its log10 of TGI
1. CN(C)C(=S)NC(=S)Nc1ccc2ccccc2c1
2. N=c1c2c(=S)n(-c3ccccc3)c(=S)n(-c3ccccc3)c2nc(SCCCN2CCCCC2)n1-c1ccccc1
3. Clc1ccc(OCc2nnc3n2N=C(c2ccccc2)CS3)cc1

Resp:
[1.59, 0.50, 1.49]

###

Tested on: OVCAR-5 ovarian
Assay: NCI tumour cell line growth inhibition, 48 h
observed.property: TGI

Some molecules with recorded TGI:
molecule	observed.property	readout.value
COCC1OC(OC2OCC3OC4(OCC(O)(C(C)OC)C5OCOC54)OC3C2OC)C(OC)C(O)C1OC1OC(C)C(OC)C(OC2OC(C)C3OC4(CC(O)C(OC5CC(OC6CC(C)([N+](=O)[O-])C(OC)C(C)O6)C(OC(=O)c6c(C)c(Cl)c(O)c(Cl)c6OC)C(C)O5)C(C)O4)OC3(C)C2O)C1O (configuration not stated)	TGI	> 100 µM
Cc1[nH]n(-c2ncc(C#N)c(=O)[nH]2)c(=O)c1CCO	TGI	> 100 µM

State the recorded TGI for every item in the following list.
1. CCOC(=O)/C=C(\C)Sc1cc(O)c2ccccc2c1O
2. CC(=O)N(C(C)=O)c1c(N)n(C)c(=O)[nH]c1=O
3. Cc1ccc2c(=O)cc(-c3ccc(Cl)cc3)[nH]c2n1
4. COc1cccc(C2CC(=O)c3cc(N4CCCC4)ccc3N2)c1 (configuration not stated)

Resp:
54.3 µM
> 100 µM
> 100 µM
> 100 µM

###

Would you mind telling me the reported TGI of each entry?
Test system: OVCAR-5 ovarian
Experiment: NCI tumour cell line growth inhibition, 48 h

compound	assayed.system	TGI
Nc1c(N2CCCCC2)c(=O)nc2[nH]/c(=C\c3ccco3)c(=O)n12	OVCAR-5 ovarian	> 100 µM
CN(N=O)C(=O)NNC(=O)N(C)N=O	OVCAR-5 ovarian	> 100 µM

Turning to the following compound.
Value of measured TGI for the entry COC(=O)CCC1(C)C2CCC1/C(=N/O)C2 (stereo not drawn) : > 100 µM

###

Tested on: NCI-H460 lung
Experiment: NCI tumour cell line growth inhibition, 48 h
observed.property: TGI

Solved entries (count: 4):
compound	TGI
C=C[C@]1(C)CC(O)C2C(=C)C(=O)OC2[C@H]1C(=C)C=O (stereo partly drawn)	31.8 µM
NC(N)=NCCCC(NC(=O)OCCCCCn1ccc(N)nc1=O)C(=O)O (stereo not drawn)	> 100 µM
O=C(c1ccccc1)N(C(=S)NCCc1ccc(Cl)cc1)c1ccc(Cl)cc1	42.4 µM
COc1ccc(NC(C)=O)cc1N1C(=O)/C(=C\c2cccc(Oc3ccccc3)c2)S(=O)(=O)C1c1ccccc1 (stereo not drawn)	> 100 µM

Quick request: TGI for each listed item, please.
1. O=c1cc(N2CCOCC2)[nH]c(=O)n1-c1cccc(Cl)c1
2. CCCCC(CCCC)=NNC(=S)SC
3. CN(C)C(=O)Oc1ccc[n+](C)c1
4. Clc1ccc(OCc2nnc3n2N=C(c2ccccc2)CS3)cc1

Resp:
1. > 100 µM
2. > 100 µM
3. > 100 µM
4. 30.5 µM

###

Test system: HCT-116 colon
Assay: NCI tumour cell line growth inhibition, 48 h; in the data active means GI50 below about 0.43 µM; inactive means the rest
# valid calls are active, inactive; nothing else

Observe how each entry below is paired with its result.
molecule	assayed.system	class.label
O=C1C(C(Nc2ccccc2)c2ccccc2)=C([O-])c2ccccc21.O=C1C(C(Nc2ccccc2)c2ccccc2)=C([O-])c2ccccc21.[Ni+2] (centres undefined)	HCT-116 colon	inactive
N#Cc1cc2c(cc1Cl)SC(=Nc1ccccc1)N(S(=O)(=O)c1ccc(Cl)cc1)S2(=O)=O	HCT-116 colon	inactive

Req: Returns: the outcome recorded for `Cc1ccc2c(c1)C(=O)C(c1c(-c3[nH]c(=O)c4ccc(C)cc4c3O)c(O)c3ccccc3c1O)=NC2=O` in this assay.
Resp: active

Req: Dear colleague, could you share the recorded outcome for `COc1ccc2c(c1)C(=Nc1ccc(F)c(F)c1F)c1c-2c(Nc2ccc(F)c(F)c2F)nc2ccccc12` when you have a moment?
Resp: inactive

###

Test system: OVCAR-8 ovarian
Assay: NCI tumour cell line growth inhibition, 48 h
Quick rule for you: TGI at 50 µM or higher means True, lower means False.

Record excerpt, results attached:
compound	assayed.system	class.label
CCOC(=O)N1CCC2(CC1)CC(=O)N(Nc1ccccc1)C2=O	OVCAR-8 ovarian	True
COc1ccc(NC(C)=O)cc1N1C(=O)/C(=C\c2cccc(Oc3ccccc3)c2)S(=O)(=O)C1c1ccccc1 (configuration not stated)	OVCAR-8 ovarian	True
COc1ccc2c(c1)c(-c1nonc1-c1cn(C)c3ccccc13)cn2C	OVCAR-8 ovarian	True
C[C@]12OC(=O)[C@]3(O)CC[C@H]4[C@@H](C[C@@H](O)[C@@]5(Cl)CC=CC(=O)[C@]45C)[C@]45OCC6C(=O)O[C@@H]1C[C@@]6(C)[C@H](C4=O)[C@@]32O5 (some centres not stated)	OVCAR-8 ovarian	False
C=C1C(=O)O[C@H]2[C@H]1CC/C(COC(=O)NCc1ccc(Cn3c(=O)sn(CCCC)c3=O)cc1)=C\CC[C@@]1(C)O[C@@H]21	OVCAR-8 ovarian	False
CCOC(=O)c1sc2c(sc(=O)n2-c2ccccc2)c1O	OVCAR-8 ovarian	True
COc1ccc(NC(=O)CC(=O)n2nc(-c3ccccc3)c(N=Nc3ccccc3C(=O)O)c2-c2ccccc2)cc1	OVCAR-8 ovarian	True
CC1=C(C(=O)OCCc2ccc([N+](=O)[O-])cc2)C(c2cccc([N+](=O)[O-])c2)C(C(=O)OC(C)C)=C(C)N1 (configuration not stated)	OVCAR-8 ovarian	True

Req: I'd appreciate it if you could say whether `OCCOCCO/N=C1\C(c2c(O)[nH]c3ccccc23)=Nc2ccccc21` has TGI at least equal to 50 µM.
Resp: False

Req: Answer whether TGI of `COc1ccc(/C=C/c2cc(OC)cc(OC)c2)cc1` is greater than or equal to 50 µM.
Resp: True

###

Tested on: SK-MEL-28 melanoma
Assay: NCI tumour cell line growth inhibition, 48 h
observed.property: TGI

Answered examples (4):
compound	TGI
S=C(NCCc1ccccn1)c1nc[nH]c1C(=S)NCCc1ccccn1	> 100 µM
c1ccc2[nH]c(C3CCCCO3)nc2c1 (stereo not given)	> 100 µM
CN(C)C=Nc1ccc2c3c(cccc13)-c1ccccc1-2	31.9 µM
C#CCC(O)c1ccccc1C(O)CC#C (stereo not given)	> 100 µM

Field: next compound
Consider CC(C)(O)C1CC[C@]2(C)CC[C@]3(C)[C@H](CC[C@@H]4[C@@]5(C)CC[C@H](O)C(C)(C)[C@@H]5CC[C@]43C)[C@@H]12 (stereo not given in full) . Its measured TGI is 67.7 µM
